The entries below are paired with their reported pIC50.
Biological target: T1, Tag1-LAG3 protein (UniProt P18627 23-450, limits assumed)
T1 construct: Kit reagent (Cisbio); Tag1 is not identified
T1 sequence (looked up): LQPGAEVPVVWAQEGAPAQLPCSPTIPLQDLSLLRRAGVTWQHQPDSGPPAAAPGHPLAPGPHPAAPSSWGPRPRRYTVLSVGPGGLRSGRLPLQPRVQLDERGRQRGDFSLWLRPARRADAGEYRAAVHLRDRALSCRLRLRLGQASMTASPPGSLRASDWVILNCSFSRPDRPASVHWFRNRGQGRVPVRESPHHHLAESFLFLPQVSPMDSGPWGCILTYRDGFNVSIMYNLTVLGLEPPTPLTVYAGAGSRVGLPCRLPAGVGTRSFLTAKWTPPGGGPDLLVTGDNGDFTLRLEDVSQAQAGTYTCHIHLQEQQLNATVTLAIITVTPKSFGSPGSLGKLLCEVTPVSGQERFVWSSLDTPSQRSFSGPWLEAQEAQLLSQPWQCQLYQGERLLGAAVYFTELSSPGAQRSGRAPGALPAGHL
Assay: HTRF (TR-FRET) competition, inhibition of LAG3:MHC-II binding
Experimental: Anti-Tag1-Tb and anti-Tag2-XL665 antibodies were added and incubated for one hour, then simultaneous measurement of both […] cryptate and 665 nm acceptor emissions were read.
Quick note: pIC50 means taking -log10 of the concentration in moles per liter.

binder="RERGGDDFAQDDYYVTIFYR (20-mer peptide) [peptide 11]" reported_value=6.45

Query: # lookup: pIC50 of RVPAPVKEQVQKQYPNAGAI (also called Low Activity Peptide) [Peptide 93]
Response: 4.20

Query: # lookup: pIC50 of EDKAPWWQLDMEFEFRLDRV (20-mer peptide) [peptide 68]
Response: 5.53

Query: # lookup: pIC50 of LAGHYHYLTAGSQDIYEYND (20-mer peptide) [peptide 62]
Response: 6.51

The origin of these recorded values is patent US20220033441A1.
